Every entry's value here was drawn from patent US20250051344A1.

measurement target: SMARCA2 (Homo sapiens, UniProt P51531)
Construct: endogenous in cells
Sequence (P51531 whole entry, species assumed): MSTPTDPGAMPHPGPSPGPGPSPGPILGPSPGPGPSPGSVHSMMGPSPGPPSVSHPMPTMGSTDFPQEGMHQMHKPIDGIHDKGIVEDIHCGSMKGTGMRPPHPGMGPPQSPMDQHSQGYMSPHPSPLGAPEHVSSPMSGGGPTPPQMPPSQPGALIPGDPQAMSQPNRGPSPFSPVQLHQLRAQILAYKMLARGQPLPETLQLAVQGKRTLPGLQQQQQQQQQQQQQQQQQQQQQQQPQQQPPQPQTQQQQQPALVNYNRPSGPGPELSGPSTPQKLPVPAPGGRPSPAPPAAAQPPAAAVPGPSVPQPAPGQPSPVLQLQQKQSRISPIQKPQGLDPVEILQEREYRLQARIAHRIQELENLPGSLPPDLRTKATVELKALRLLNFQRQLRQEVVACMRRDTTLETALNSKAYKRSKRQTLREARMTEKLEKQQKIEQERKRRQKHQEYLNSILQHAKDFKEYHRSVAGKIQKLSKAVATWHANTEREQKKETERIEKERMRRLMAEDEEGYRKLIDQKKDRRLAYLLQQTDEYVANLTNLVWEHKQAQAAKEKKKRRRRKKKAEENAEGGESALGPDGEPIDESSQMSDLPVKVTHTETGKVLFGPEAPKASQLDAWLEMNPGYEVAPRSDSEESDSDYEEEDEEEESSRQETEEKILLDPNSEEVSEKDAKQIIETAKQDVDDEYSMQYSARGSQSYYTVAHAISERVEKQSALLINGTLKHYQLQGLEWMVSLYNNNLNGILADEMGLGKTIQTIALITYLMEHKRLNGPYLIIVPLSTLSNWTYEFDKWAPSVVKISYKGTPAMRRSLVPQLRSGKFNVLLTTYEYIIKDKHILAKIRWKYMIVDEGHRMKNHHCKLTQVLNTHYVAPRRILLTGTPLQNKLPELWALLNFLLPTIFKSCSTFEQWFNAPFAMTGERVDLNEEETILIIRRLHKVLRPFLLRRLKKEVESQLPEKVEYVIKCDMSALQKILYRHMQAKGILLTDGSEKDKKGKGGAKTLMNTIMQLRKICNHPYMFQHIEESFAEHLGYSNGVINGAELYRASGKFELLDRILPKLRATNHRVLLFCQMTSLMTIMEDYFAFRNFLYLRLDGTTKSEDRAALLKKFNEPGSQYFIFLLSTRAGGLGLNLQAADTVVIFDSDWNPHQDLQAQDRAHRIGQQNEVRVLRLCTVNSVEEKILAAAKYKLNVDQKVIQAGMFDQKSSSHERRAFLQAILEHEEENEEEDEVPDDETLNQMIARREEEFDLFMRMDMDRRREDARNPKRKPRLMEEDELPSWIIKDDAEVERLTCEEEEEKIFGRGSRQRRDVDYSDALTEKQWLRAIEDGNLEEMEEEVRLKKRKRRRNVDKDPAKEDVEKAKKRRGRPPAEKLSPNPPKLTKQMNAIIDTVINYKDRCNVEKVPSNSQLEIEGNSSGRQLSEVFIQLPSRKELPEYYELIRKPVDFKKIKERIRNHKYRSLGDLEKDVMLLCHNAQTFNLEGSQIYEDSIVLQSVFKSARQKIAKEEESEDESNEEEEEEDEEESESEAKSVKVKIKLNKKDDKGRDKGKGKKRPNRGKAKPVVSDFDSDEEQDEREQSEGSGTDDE
test name: SMARCA2 Cellular Degradation Assay (Western blot analysis on Jess platform)
Type: cell-based
condition parameters: cellular degradation

{"columns": ["molecule", "measurement target", "Dmax (%)"],
 "data": [
  ["CC1(C)CC(NC(=O)C2(c3ccccc3)CCN(c3cnnc(-c4ccccc4O)c3)CC2)CCN1CC1CCN(c2ccc([C@H]3CCC(=O)NC3=O)cc2)CC1 (some centres unmarked) [Example 183]", "SMARCA2 (Homo sapiens, UniProt P51531)", 80.7],
  ["CN(C(=O)C1(OC2CC2)CCN(c2cnnc(-c3ccccc3O)c2)CC1)C1CCN(CC2CCN(c3ccc([C@H]4CCC(=O)NC4=O)cc3)CC2)CC1 [Example 114]", "SMARCA2 (Homo sapiens, UniProt P51531)", 78.6],
  ["Cc1ccnn1C1(C(=O)N(C)C2CCN(C3COC4(CCN(c5ccc([C@H]6CCC(=O)NC6=O)cc5)CC4)C3)CC2)CCN(c2cnnc(-c3ccccc3O)c2)CC1 (mixture of isomers) [Example 63]", "SMARCA2 (Homo sapiens, UniProt P51531)", 80.5],
  ["CN(C(=O)C1(c2ccccc2)CCN(c2cnnc(-c3ccccc3O)c2)CC1)C1CCN(CC2CCN(c3cccc([C@@H]4CCC(=O)NC4=O)c3)CC2)CC1 (racemic) [Example 102]", "SMARCA2 (Homo sapiens, UniProt P51531)", 77.7],
  ["Cn1c(=O)n(C2CCC(=O)NC2=O)c2cccc(N3CCN(CC(=O)N4CC5(C4)CN(C(=O)C4(c6ccccc6)CCN(c6cnnc(-c7ccccc7O)c6)CC4)C5)CC3)c21 (racemic) [Example 126]", "SMARCA2 (Homo sapiens, UniProt P51531)", 80.9]
]}

###

measurement target: SMARCA2 (Homo sapiens, UniProt P51531)
Construct: endogenous in cells
test name: SMARCA2 Cellular Degradation Assay (Western blot analysis on Jess platform)
Format: cell-based
condition parameters: cellular degradation
Kindly return 1.0 if reported Dmax is no lower than 80%; return 0.0 if it is lower.

{"columns": ["compound", "measurement target", "answer label"],
 "data": [
  ["CCCN(C(=O)C1(c2ccccc2)CCN(c2cnnc(-c3ccccc3O)c2)CC1)C1CCN(CCC2CCN(c3ccc([C@H]4CCC(=O)NC4=O)cc3)CC2)CC1", "SMARCA2 (Homo sapiens, UniProt P51531)", 1.0],
  ["CN(C(=O)C1(c2cc3ccccn3n2)CCN(c2cnnc(-c3ccccc3O)c2)CC1)C1CCN(CC2CCN(c3ccc(C4CCC(=O)NC4=O)cc3)CC2)CC1 (racemic)", "SMARCA2 (Homo sapiens, UniProt P51531)", 1.0],
  ["CN(CC1(c2ccccc2)CCN(c2cnnc(-c3ccccc3O)c2)CC1)C1CCN(C(=O)C2CCN(c3ccc(C4CCC(=O)NC4=O)cc3)CC2)CC1 (racemic)", "SMARCA2 (Homo sapiens, UniProt P51531)", 0.0],
  ["O=C1CC[C@H](c2ccc(N3CCC(CCN4CCC(S(=O)(=O)NCC5(c6ccccc6)CCN(c6cnnc(-c7ccccc7O)c6)CC5)CC4)CC3)cc2)C(=O)N1 (racemic)", "SMARCA2 (Homo sapiens, UniProt P51531)", 1.0],
  ["O=C1CCC(NC(=O)c2cc(N3CCN(C(=O)C4(c5ccccc5)CCN(c5cnnc(-c6ccccc6O)c5)CC4)CC3)ccn2)C(=O)N1 (racemic)", "SMARCA2 (Homo sapiens, UniProt P51531)", 0.0],
  ["CN(C(=O)C1(c2ccc(F)cc2)CCN(c2cnnc(-c3ccccc3O)c2)CC1)C1CCN(CCC2CCN(c3ccc(C4CCC(=O)NC4=O)cc3)CC2)CC1 (racemic)", "SMARCA2 (Homo sapiens, UniProt P51531)", 1.0],
  ["O=C1CC[C@H](c2ccc(N3CCC(CN4CCC5(CC4)CN(C(=O)C4(c6ccccc6)CCN(c6cnnc(-c7ccccc7O)c6)CC4)C5)CC3)cc2)C(=O)N1", "SMARCA2 (Homo sapiens, UniProt P51531)", 1.0],
  ["O=C1CC[C@H](c2ccc(N3CCC(CN4CCC(NC(=O)C5(c6ccccc6)CCN(c6cnnc(-c7ccccc7O)c6)CC5)CC45CCC5)CC3)cc2)C(=O)N1 (stereo partly drawn)", "SMARCA2 (Homo sapiens, UniProt P51531)", 1.0],
  ["O=C1CCC(c2ccc(N3CCC(CNC4CCN(C(=O)C5(c6ccccc6)CCN(c6cnnc(-c7ccccc7O)c6)CC5)CC4)CC3)cc2)C(=O)N1 (racemic)", "SMARCA2 (Homo sapiens, UniProt P51531)", 0.0],
  ["Cc1cc(C2(C(=O)N(C)C3CCN(CCC4CCN(c5ccc(C6CCC(=O)NC6=O)c(F)c5)CC4)CC3)CCN(c3cnnc(-c4ccccc4O)c3)CC2)on1 (racemic)", "SMARCA2 (Homo sapiens, UniProt P51531)", 1.0],
  ["O=C1CCC(c2ccc(N3C[C@@H]4CN(CC5CCN(C(=O)C6(c7ccccc7)CCN(c7cnnc(-c8ccccc8O)c7)CC6)CC5)C[C@H]4C3)cc2)C(=O)N1 (mixture of isomers)", "SMARCA2 (Homo sapiens, UniProt P51531)", 1.0],
  ["O=C1CC[C@H](c2ccc(N3CCC(CN4CCCN(C(=O)C5(c6ccccc6)CCN(c6cnnc(-c7ccccc7O)c6)CC5)CC4)CC3)cc2)C(=O)N1", "SMARCA2 (Homo sapiens, UniProt P51531)", 0.0],
  ["O=C1CC[C@H](NC(=O)c2ccc(N3CCC(CN4CCC(NC(=O)C5(c6ccccc6)CCN(c6cnnc(-c7ccccc7O)c6)CC5)CC4)CC3)nc2)C(=O)N1", "SMARCA2 (Homo sapiens, UniProt P51531)", 0.0],
  ["CN(C(=O)C1(c2ccnn2C)CCN(c2cnnc(-c3ccccc3O)c2)CC1)C1CCN(CCC2CCN(c3ccc(C4CCC(=O)NC4=O)cc3)CC2)CC1 (racemic)", "SMARCA2 (Homo sapiens, UniProt P51531)", 1.0],
  ["CC1(CN2CCC(c3ccc(C4CCC(=O)NC4=O)cc3)CC2)CCN(C(=O)C2(c3ccccc3)CCN(c3cnnc(-c4ccccc4O)c3)CC2)C1 (racemic)", "SMARCA2 (Homo sapiens, UniProt P51531)", 0.0],
  ["COc1ccccc1C1(C(=O)N(C)C2CCN(CC3CCN(c4ccc([C@H]5CCC(=O)NC5=O)cc4)CC3)CC2)CCN(c2cnnc(-c3ccccc3O)c2)CC1", "SMARCA2 (Homo sapiens, UniProt P51531)", 1.0]
]}
